- condition: buffer; pH 7.4; 200.0 µM
measurement kind: solubility kinetic

Sample records with solubility kinetic:
In [3]: df
Out[3]:
                                   compound    measurement_kind  endpoint_result
0           COC(=O)c1cc(C(C)=O)c(C)[nH]c1=O  solubility kinetic     > 31.4 µg/mL
1  c1csc(-c2noc(CN3CCN4CCCC4C3)n2)c1 (stereo not drawn)  solubility kinetic     > 43.6 µg/mL
2           CNC(=S)Nc1ccc2[nH]c(=O)[nH]c2c1  solubility kinetic     > 33.3 µg/mL
3         CN(C(=O)/C=C/c1ccc(F)cc1)C1CCCCC1  solubility kinetic     > 39.2 µg/mL

Consider the compound COc1cc(/C=C/C(=O)Nc2cccnc2)cc(OC)c1OC and give its measured solubility kinetic.
40.9 µg/mL

Consider the compound COc1ccc(N/C(N)=N/c2nc(C)cc(=O)[nH]2)cc1 and give its measured solubility kinetic.
6.8 µg/mL

Consider the compound CCn1c(=NC(=O)C2COc3ccccc3O2)sc2c(C)ccc(OC)c21 (stereo not drawn) and give its measured solubility kinetic.
< 0.4 µg/mL

Consider the compound O=C(COC(=O)c1ccc2c(c1)OCO2)Nc1ccccc1OC(F)F and give its measured solubility kinetic.
3.7 µg/mL

Consider the compound COC(=O)c1ccc2nc(-c3ccc(S(C)(=O)=O)cc3)cn2c1 and give its measured solubility kinetic.
2 µg/mL

Consider the compound COCCN(C)Cc1nc(C(c2ccccc2)c2ccccc2)no1 and give its measured solubility kinetic.
37.7 µg/mL

Consider the compound CNC(=S)Nc1cc(C(=O)N2CCCC2)ccc1N1CCCC1 and give its measured solubility kinetic.
> 49.9 µg/mL

Consider the compound COc1ccccc1C(=O)NCCC(=O)N1CCCCC1 and give its measured solubility kinetic.
> 43.6 µg/mL

Consider the compound CC(NCc1ccccc1O)c1ccccc1 (stereo not drawn) and give its measured solubility kinetic.
> 34.1 µg/mL

Consider the compound Cc1ccccc1NC(=O)NC1(C(=O)N2CCC(O)CC2)CCCCC1 and give its measured solubility kinetic.
44.1 µg/mL

Consider the compound COC(=O)c1sccc1NC(=O)COc1cccc(C)c1 and give its measured solubility kinetic.
< 0.7 µg/mL

Consider the compound COc1ccc2nc3oc(C(=O)NCCCOC(C)C)cc3cc2c1 and give its measured solubility kinetic.
12 µg/mL

Consider the compound O=C(NCc1ccccc1)C(=O)Nc1nccs1 and give its measured solubility kinetic.
3.1 µg/mL

Consider the compound COc1cc(CNc2ncnc3c2[nH]c2ccc(C)cc23)cc(OC)c1 and give its measured solubility kinetic.
0.7 µg/mL

###

- condition: buffer; pH 7.4; 200.0 µM
Param threshold (20 µg/mL) applies to solubility kinetic; output YES when value >= threshold, NO when value < threshold.

Completed entries (count: 3):
In [3]: df
Out[3]:
                                   compound  class_name
0   COCCCNC(=O)Cc1ccc(-n2c(C)nc3cccnc32)cc1         YES
1  COC(=O)C1CCN(C(=O)CN2C(=O)NC3(CCC(C)CC3)C2=O)CC1 (stereo not drawn)         YES
2  CC1(C(=O)Nc2ccccc2)Cc2ccccc2C(=O)O1 (stereo not drawn)         YES

Consider the record given below.
Form field: solubility kinetic at least 20 µg/mL? Entry: Cc1ccccc1C(=O)NCCCNC(=O)c1ccco1
YES
